Values were extracted from the kinase profiling compilation of Christmann-Franck et al. (2016).

experimental_target: EPHB4 (human) (UniProt P54760)
Sequence (P54760 whole entry, looked up): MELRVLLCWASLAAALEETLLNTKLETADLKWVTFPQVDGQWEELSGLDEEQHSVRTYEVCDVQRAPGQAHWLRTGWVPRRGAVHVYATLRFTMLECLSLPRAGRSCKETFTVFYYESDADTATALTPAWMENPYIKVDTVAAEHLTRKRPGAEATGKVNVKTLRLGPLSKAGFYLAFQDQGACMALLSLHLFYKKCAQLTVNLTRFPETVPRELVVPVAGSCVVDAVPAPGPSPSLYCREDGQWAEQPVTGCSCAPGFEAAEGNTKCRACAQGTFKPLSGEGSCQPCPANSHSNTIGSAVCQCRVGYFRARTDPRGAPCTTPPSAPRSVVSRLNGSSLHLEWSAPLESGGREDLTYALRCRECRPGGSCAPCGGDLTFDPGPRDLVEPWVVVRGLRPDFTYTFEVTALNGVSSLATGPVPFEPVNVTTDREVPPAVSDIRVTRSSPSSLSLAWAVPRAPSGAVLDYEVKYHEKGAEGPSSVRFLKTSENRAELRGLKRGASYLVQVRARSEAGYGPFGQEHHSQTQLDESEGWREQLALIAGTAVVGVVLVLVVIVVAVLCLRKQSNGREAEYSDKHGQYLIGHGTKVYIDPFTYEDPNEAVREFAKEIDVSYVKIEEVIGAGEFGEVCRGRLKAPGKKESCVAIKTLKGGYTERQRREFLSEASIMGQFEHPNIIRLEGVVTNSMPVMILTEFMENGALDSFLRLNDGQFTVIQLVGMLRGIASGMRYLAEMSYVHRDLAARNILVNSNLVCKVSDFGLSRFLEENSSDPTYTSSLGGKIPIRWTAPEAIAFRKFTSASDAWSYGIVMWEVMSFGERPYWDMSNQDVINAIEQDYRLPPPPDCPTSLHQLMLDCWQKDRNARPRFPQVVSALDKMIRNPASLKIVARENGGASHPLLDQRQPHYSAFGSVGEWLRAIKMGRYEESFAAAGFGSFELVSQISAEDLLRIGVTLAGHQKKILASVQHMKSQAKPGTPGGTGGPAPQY
measurement_notes: radiometric filter-binding kinase assay, Kinase HotSpot
assay_setup: compound 0.5 µM; ATP 10 µM
Measured residual activity, listed per entry for reference.
endpoint_name: residual activity (%)

compound | experimental_target | unit_of_measurement | observed_result
CC(C)N(CCC(=O)c1ccc2ccccc2c1)Cc1ccccc1 | EPHB4 (human) (UniProt P54760) | % | 102
COc1cc2ncnc(Nc3cccc(Cl)c3)c2cc1OC | EPHB4 (human) (UniProt P54760) | % | 59.7
O=C1NC(=O)c2c1c1c3ccccc3n3c1c1c2c2ccccc2n1C1CCC3O1 | EPHB4 (human) (UniProt P54760) | % | 75.4
O=S(=O)(c1cccc2cnccc12)N1CCCNCC1 | EPHB4 (human) (UniProt P54760) | % | 107
c1ccc(-c2n[nH]c3c2oc2ccccc23)cc1 | EPHB4 (human) (UniProt P54760) | % | 112
Cc1ccc(Nc2nccc(N(C)c3ccc4c(C)n(C)nc4c3)n2)cc1S(N)(=O)=O | EPHB4 (human) (UniProt P54760) | % | 93.8
CO[C@H]1CC2CC[C@@H](C)[C@@](O)(O2)C(=O)C(=O)N2CCCC[C@H]2C(=O)OC([C@H](C)C[C@@H]2CC[C@@H](O)[C@H](OC)C2)CC(=O)[C@H](C)/C=C(\C)[C@@H](O)[C@@H](OC)C(=O)[C@H](C)C[C@H](C)/C=C/C=C/C=C/1C (some centres not stated) | EPHB4 (human) (UniProt P54760) | % | 89.5
Nc1ncnc2c1c(-c1ccc(Oc3ccccc3)cc1)cn2C1CCCC1 | EPHB4 (human) (UniProt P54760) | % | 98.3
N#C/C(=C(/N)Sc1ccc(N)cc1)c1ccccc1C(F)(F)F | EPHB4 (human) (UniProt P54760) | % | 102
COc1ccc2c(c[n+](C)c3c4cc5c(cc4ccc23)OCO5)c1OC | EPHB4 (human) (UniProt P54760) | % | 91.7
O=C(Nc1cccc(Nc2nccc(Nc3cccc(C(F)(F)F)c3)n2)c1)C1CC1 | EPHB4 (human) (UniProt P54760) | % | 91.3
O=C1Nc2ccc(Cl)cc2/C1=C/c1cc(Cl)c(O)c(Cl)c1 | EPHB4 (human) (UniProt P54760) | % | 100
